- Target Under Test: T1, cyno IL-5 with his-tag (cyno (paragraph 156 says rhesus), UniProt P48093 20-134 (rhesus entry))
- T1 construct: also called rhesus IL-5 with His-tag; monkey IL-5
- T1 sequence: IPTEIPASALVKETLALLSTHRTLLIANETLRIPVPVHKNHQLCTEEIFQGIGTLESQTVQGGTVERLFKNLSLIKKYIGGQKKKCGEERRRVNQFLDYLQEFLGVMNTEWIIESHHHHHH
- Experiment Summary: Biacore T200, antibody captured on protein A chip, antigen in flow, 1:1 Langmuir
Measured Property: Kd (nM)
A number alone suffices; assume nM.

mAb1773 (antibody, V domains shown, Murine hybridoma antibody) VH: EVQLQQSLAELVRPGASVTLSCTASGFNIKNTYIHWVKQRPEQGLEWIGRIDPANGDTKHGPKFQGKATITADTSSNTAYLQFSSLTSEDTAIYYCFRYGIYPDHWGQGTPLTVSS VL: QIVLTQSPALMSASPGEKVTMTCSASSSVNYIYWYQQKPRSSPKPWIYLTATLASGVPARFSGSGSGTSFSLTISRMEAEDAATYYCQQWNSYPYTFGGGTKLEIE : 0.476

Kd measured on mAb1705 (antibody, V domains shown, Murine hybridoma antibody) VH: EVQLVESGGGLVQPGRSLKLSCTASGFTFSHYYMAWVRQAPKKGLEWVTSISYEGDITYYGDSVKGRFTISRDNAKSTLYLQMNSLRSEDTATYYCASQTLRESFDYWGQGVMVTVSS VL: DIQMTQSPSSMSVSLGDRVTITCRASQDIANYLSWYQQKIARSPKLVIYGTSNLEVGVPSRFSGSRSGSDYSLTINTLESEDTGIYFCLQDKEFPRTFGGGTRLELK = 0.205

Kd measured on mAb1780 (antibody, V domains shown, Murine hybridoma antibody) VH: QVKLLQSGAALVKPGDSVKMSCKASDYTFTEYLIHWVKQSQGRSLEWIGYINPYSGGTVYNEKFKSKATLTVDKFSSTAYMEFRRLTFEDSAIYYCARDGGYSDPLDYWGQGVMVTVSS VL: DTVLTQSPALAVSPGERVSISCRASEGLTSYMHWYQQKPGQQPKLLIYKASNLASGVPARFSGSGSGTDFTLTIDPVEADDAATYFCQQNWNDPWTFGGGTKLELK = 0.312

Kd measured on mAb1706 (antibody, V domains shown, Murine hybridoma antibody) VH: EVQLVESGGGLVQPGRSLKLSCAASGFTFSHYYMAWVRQAPKKGLEWVTSINYEGNSAYYGDSVKGRFTISRDNAKSTLYLQMDSLRSEDTATYYCATETLRESLDYWGQGVMVTVSS VL: DIQMTQSPSSMSVSLGDRVTITCRASQDIGNYLSWYQQKLGKSPKLMIHSASNLEVGVPSRFSGSRSGSDYSLTINTLESEDPGIYFCLQHKQFPRTFGGGTKLELK = 0.277
